From: patent US4337199A

tested on: Enterobacter sp. E8; assay: minimum inhibitory concentration, agar dilution assay; format: cell-based; details: SP.E8, agar dilution, 35° C., 20 hours, read-out: minimum inhibitory concentration
The entries below come with measured log10 of MIC values attached.
MEASURE: log10 of MIC (log10 of the value in µg/mL)

[
  {
    "COMPOUND": "CC(O)C1C(=O)N2C(C(=O)O)=C(Sc3ncccn3)CC12 (centres unmarked)",
    "log10 of MIC": -1.89
  },
  {
    "COMPOUND": "CC(O)C1C(=O)N2C(C(=O)O)=C(Sc3ccccc3)CC12 (centres unmarked)",
    "log10 of MIC": 0.50
  },
  {
    "COMPOUND": "CC(=O)NCCSC1=C(C(=O)O)N2C(=O)C(C(C)O)C2C1 (centres unmarked) [PS-3B, reference compound]",
    "log10 of MIC": -1.15
  },
  {
    "COMPOUND": "CC(O)C1C(=O)N2C(C(=O)O)=C(Sc3ccccn3)CC12 (centres unmarked)",
    "log10 of MIC": -0.11
  },
  {
    "COMPOUND": "CC(O)[C@H]1C(=O)N2C(C(=O)O)=C(SCCO)C[C@H]12 (some centres unmarked)",
    "log10 of MIC": 0.80
  },
  {
    "COMPOUND": "Cc1nnc(SCC2=C(C(=O)O)N3C(=O)[C@@H](NC(=O)Cn4cnnn4)[C@H]3SC2)s1 [CEZ, cephazolin, reference compound]",
    "log10 of MIC": 0.50
  },
  {
    "COMPOUND": "CC(O)C1C(=O)N2C(C(=O)O)=C(SCCO)CC12 (centres unmarked)",
    "log10 of MIC": -0.70
  },
  {
    "COMPOUND": "CC(O)[C@H]1C(=O)N2C(C(=O)O)=C(Sc3ncccn3)C[C@H]12 (some centres unmarked)",
    "log10 of MIC": 0.80
  }
]
